B1: C9orf25 (parent)
chain: LARKGSLKNGSMGSPVNQQPKKNN

Variants of: B1
MEASUREMENT_NOTES: protein stability index of a GFP-peptide fusion (GPS, HEK-293T) (PSI 1-6); higher = more stable;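 note: lentivirally expressed fusions sorted by FACS into six bins by GFP to DsRed ratio, PSI derived from sequencing read proportions per bin multiplied by bin number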
PROTOCOL_CONDITIONS: c terminus: a fixed tail appended
QUANTITY_NAME: protein stability index
API note: the answer field is a bare number with no unit suffix.

As a guide, the following entries are already answered.
N9S = 4.94
S11Q = 4.29
M12W = 4.11
S11M = 4.22
S14V = 4.77

# query: protein stability index of entry K8H 4.7

# query: protein stability index of entry Q18V 4.64

# query: protein stability index of entry K8W 4.1

# query: protein stability index of entry S6I 4.72

# query: protein stability index of entry A2S 4.72

# query: protein stability index of entry L1F 3.96

# query: protein stability index of entry L1E 5.35

# query: protein stability index of entry M12A 4.42

# query: protein stability index of entry S14T 4.42

# query: protein stability index of entry K4E 4.91

# query: protein stability index of entry K22H 4.02

# query: protein stability index of entry Q18K 5.08

# query: protein stability index of entry G13S 3.98

# query: protein stability index of entry S11Y 4.35

# query: protein stability index of entry N24I 3.82

# query: protein stability index of entry K4P 4.92

# query: protein stability index of entry P15C 4.48
